Catalogue of compounds with associated % activity
Molecular target: human calcium receptor (Homo sapiens, UniProt P41180, R990G)
Construct: expressed in transfected cells; host or cells: HEK 293
Sequence (P41180 20-1078 R990G): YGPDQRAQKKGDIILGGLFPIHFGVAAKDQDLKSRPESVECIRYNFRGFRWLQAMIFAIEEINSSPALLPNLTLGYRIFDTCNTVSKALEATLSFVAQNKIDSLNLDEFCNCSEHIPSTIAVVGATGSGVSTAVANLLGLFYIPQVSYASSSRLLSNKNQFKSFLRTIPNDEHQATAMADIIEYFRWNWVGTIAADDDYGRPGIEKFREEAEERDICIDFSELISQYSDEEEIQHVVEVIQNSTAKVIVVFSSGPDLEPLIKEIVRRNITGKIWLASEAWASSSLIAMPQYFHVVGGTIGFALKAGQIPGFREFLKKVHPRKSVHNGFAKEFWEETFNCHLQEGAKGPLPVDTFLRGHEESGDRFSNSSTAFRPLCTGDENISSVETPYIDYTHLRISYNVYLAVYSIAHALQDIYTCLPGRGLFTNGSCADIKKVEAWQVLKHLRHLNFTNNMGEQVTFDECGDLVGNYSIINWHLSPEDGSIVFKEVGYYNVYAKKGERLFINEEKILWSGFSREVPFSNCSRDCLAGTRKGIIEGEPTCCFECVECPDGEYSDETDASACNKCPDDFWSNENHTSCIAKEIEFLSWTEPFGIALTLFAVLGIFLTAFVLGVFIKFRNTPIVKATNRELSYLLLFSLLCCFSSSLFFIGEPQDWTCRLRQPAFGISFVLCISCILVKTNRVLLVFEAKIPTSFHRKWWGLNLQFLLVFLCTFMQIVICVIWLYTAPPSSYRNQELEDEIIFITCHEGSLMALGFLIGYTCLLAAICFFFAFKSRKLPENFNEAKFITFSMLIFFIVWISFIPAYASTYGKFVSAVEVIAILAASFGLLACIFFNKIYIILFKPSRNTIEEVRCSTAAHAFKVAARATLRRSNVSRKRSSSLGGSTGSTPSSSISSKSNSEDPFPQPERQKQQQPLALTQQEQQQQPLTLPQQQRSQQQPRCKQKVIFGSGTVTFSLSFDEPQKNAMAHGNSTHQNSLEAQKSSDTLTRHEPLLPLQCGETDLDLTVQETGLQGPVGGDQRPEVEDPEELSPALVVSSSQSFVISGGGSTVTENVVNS
Test: increases in [Ca^2+ ]i in HEK-293 cells expressing the human calcium receptor (fura-2 loaded HEK 293/pHuPCaR4.0 cells), % activity
Type: cell-based

{"columns": ["COMPOUND", "SYSTEM UNDER TEST", "% activity"],
 "data": [
  ["CC(NC1CCc2ccccc2C1)c1ccccc1 (mixture of isomers)", "human calcium receptor (Homo sapiens, UniProt P41180, R990G)", 45],
  ["CC(NCCC(c1ccccc1)c1ccccc1)c1ccccc1C(F)(F)F (stereo not shown)", "human calcium receptor (Homo sapiens, UniProt P41180, R990G)", 45],
  ["CC(NCCC(c1ccccc1)c1ccccc1)c1ccc(O)cc1 (stereo not shown)", "human calcium receptor (Homo sapiens, UniProt P41180, R990G)", 45],
  ["C[C@@H](NCc1ccccc1)c1cccc2ccccc12 [Compound 12L]", "human calcium receptor (Homo sapiens, UniProt P41180, R990G)", 45],
  ["CC(NCCC(c1ccccc1)c1ccccc1)c1ccccc1Cl (stereo not shown)", "human calcium receptor (Homo sapiens, UniProt P41180, R990G)", 15],
  ["CC(NCCC(c1ccccc1)c1ccccc1)c1cccc(F)c1 (stereo not shown)", "human calcium receptor (Homo sapiens, UniProt P41180, R990G)", 15],
  ["CCN(CCCc1ccccc1)C(C)c1ccc(C(C)(C)C)cc1 (stereo not shown) [Compound 14I]", "human calcium receptor (Homo sapiens, UniProt P41180, R990G)", 45]
]}

Data origin, for the record: patent US6211244A
